Exercise: for every item that follows, state its recorded pIC50.
Test system: LANS neuroblastoma cell line
experimental_details: Toxicity against neuroblastoma cell line LANS
Format: cell-based
Bear in mind: pIC50 is minus log10 of a mol/L concentration; give just that figure.

[Q] # query: pIC50 of entry `[NH3+][Pt-2]([Cl])([Cl])[NH+]1CCN(c2ccccc2)CC1`
[A] 5.28

[Q] For the compound O=C1[O][Pt]2([NH][C@@H]3CCCC[C@H]3[NH]2)[O]C1=O [Oxaliplatin, reference compound] , what pIC50 is on record?
[A] 4.80

[Q] Report pIC50 for N.N.[Cl][Pt][Cl] [Cisplatin] please.
[A] 5.21

---

Test system: OCT1 (human, expressed in the cells; OCT1-dependent cytotoxicity)
experimental_details: in vitro
condition_notes: human
endpoint: IC50 at 7 h
Form field: result (number plus unit)

[Q] // IC50 at 7 h lookup, key: [NH2][Pt]([Cl])([Cl])[N]1CCN(c2ccc(F)cc2)CC1 [SM85]
[A] 71 nM

---

System: NB1691 neuroblastoma cell line
experimental_details: Toxicity against neuroblastoma cell line NB1691
Type: cell-based
endpoint: IC50 (µM)
Field format: number, assumed µM, no unit text.

[Q] Fill in the recorded IC50 for this molecule, with NB1691 neuroblastoma cell line as test system: N.N.[Cl][Pt][Cl] [Cisplatin]
[A] 12.4

[Q] Hello, I am looking for reported IC50 with NB1691 neuroblastoma cell line for [NH3+][Pt-2]([Cl])([Cl])[NH+]1CCN(c2ccccc2)CC1 [SM73] . Could you help?
[A] 9.72

[Q] What measured IC50 is associated with O=C1[O][Pt]2([NH][C@@H]3CCCC[C@H]3[NH]2)[O]C1=O [Oxaliplatin, reference compound] on NB1691 neuroblastoma cell line?
[A] 29.4

---

Would you mind telling me the reported IC50 of each entry?
System: Kelly neuroblastoma cell line
experimental_details: Toxicity against neuroblastoma cell line Kelly
Assay type: cell-based
Kindly write the number and append the unit.

[Q] So what's the measured IC50 for this one? `[NH3+][Pt-2]([Cl])([Cl])[NH+]1CCN(c2ccccc2)CC1`
[A] 13.1 µM

[Q] If you can, please state the reported IC50 value of N.N.[Cl][Pt][Cl] [Cisplatin] .
[A] 19.9 µM

[Q] Entry under review: O=C1[O][Pt]2([NH][C@@H]3CCCC[C@H]3[NH]2)[O]C1=O [Oxaliplatin, reference compound] . Reported IC50?
[A] 20.4 µM

---

experimental_details: Rate of inactivation of platinums by glutathione
Type: physicochemical
condition_notes: platinum drug 100 μM; [GSH] 6.75 mM; [NaCl] 4.62; absorption at 260 nm
Answer each item with its documented Initial Rate of reaction with glutathione.
Express it in Absorption unit/hr; write the number only.

[Q] Quick one: Initial Rate of reaction with glutathione of O=C1[O][Pt]2([NH][C@@H]3CCCC[C@H]3[NH]2)[O]C1=O [Oxaliplatin, reference compound] ?
[A] 0.0909

[Q] Can you look up the measured Initial Rate of reaction with glutathione of [NH3+][Pt-2]([Cl])([Cl])[NH+]1CCN(c2ccccc2)CC1 [SM73] for me?
[A] 0.1132

[Q] Entry under review: N.N.[Cl][Pt][Cl] [Cisplatin] . Reported Initial Rate of reaction with glutathione?
[A] 0.1173

[Q] Look at this compound and give its reported Initial Rate of reaction with glutathione. [NH2][Pt]([Cl])([Cl])[N]1CCN(c2ccc(F)cc2)CC1 [SM85]
[A] 0.1037
